B1: SLC2A12 (parent)
chain: CLLGLGSLVLILSLSYTVLIVGRI

Variants of: B1
ASSAY_EXPLANATION: protein stability index of a GFP-peptide fusion (GPS, HEK-293T) (PSI 1-6); higher = more stable;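 note: lentivirally expressed fusions sorted by FACS into six bins by GFP to DsRed ratio, PSI derived from sequencing read proportions per bin multiplied by bin number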
CONDITION_LABEL: c terminus: a fixed tail appended
Grouping key: protein stability index. Bins: low (below 2), intermediate (2 to below 3), high (3 or more)

• CLLGLGSLVLILSLWYTVLIVGRI = low
• CLLGLGSLVLILSLSYTVWIVGRI = low
• CLLGLGSLTLILSLSYTVLIVGRI = intermediate
• CLLGLGSLVLILSLSYTLLIVGRI = intermediate
• CLLGLGSLVLILSLSYTVLIVGQI = intermediate

We next turn to a different variant, shown below.
**Query** Categorize the following entry: CLLGLGSLVLIESLSYTVLIVGRI
**Result** high
